system: clinical strains of Candida albicans; assay: MIC, clinical yeast strains, Candida albicans; assay type: cell-based; set-up: unit: μg/ml; details: Candida albicans clinical yeast strain 5
Where a SMILES comes first, the peptide text is derived from it. [ ]: non-standard residue; d: D form.
# reported Minimum inhibitory concentration; entries follow
Give a plain numeric answer without units written out.

{"molecule": "CC[C@@H](C)[C@@H](NC(=O)[C@@H](Cc1c[nH]c2ccccc12)NC(=O)[C@H](N)CCCCN)C(=O)N[C@@H](C(=O)N[C@H](Cc1c[nH]c2ccccc12)C(=O)N[C@H](CCCNC(=N)N)C(=O)N[C@H](Cc1c[nH]c2ccccc12)C(=O)N[C@H](CCCNC(=N)N)C(=O)N[C@H](Cc1ccccc1)C(=O)N[C@H](CCCCN)C(=O)N[C@H](CCCNC(=N)N)C(=O)O)C(C)C [Chain201D] (H-[dK][dW][dI][dV][dW][dR][dW][dR][dF][dK][dR]-OH)", "experimental.readout": "Minimum inhibitory concentration", "assay.value": 8}
{"molecule": "C[C@@H]1[C@H](O)[C@@H](C)/C=C/C=C/C=C/C=C/C=C/C=C/C=C/[C@H](O[C@@H]2O[C@H](C)[C@@H](O)[C@H](N)[C@@H]2O)C[C@@H]2O[C@](O)(C[C@@H](O)C[C@@H](O)[C@H](O)CC[C@@H](O)C[C@@H](O)CC(=O)O[C@H]1C)C[C@H](O)[C@H]2C(=O)O [Amphotericin B, reference compound]", "experimental.readout": "Minimum inhibitory concentration", "assay.value": 2}
{"molecule": "CC(C)C[C@@H](NC(=O)[C@@H](CCCCN)NC(=O)[C@@H](CCCCN)NC(=O)[C@@H](Cc1ccccc1)NC(=O)[C@@H](CC(C)C)NC(=O)[C@@H](Cc1c[nH]c2ccccc12)NC(=O)[C@@H](CCCNC(=N)N)NC(=O)[C@@H](Cc1c[nH]c2ccccc12)NC(=O)[C@@H](CCCCN)NC(=O)[C@@H](CCCNC(=N)N)NC(=O)[C@H](N)CCCCN)C(=O)O [Chain310D] (H-[dK][dR][dK][dW][dR][dW][dL][dF][dK][dK][dL]-OH)", "experimental.readout": "Minimum inhibitory concentration", "assay.value": 16}
{"molecule": "CC(C)C[C@@H](NC(=O)[C@H](N)CCCNC(=N)N)C(=O)N[C@H](CCCCN)C(=O)N[C@H](CCCNC(=N)N)C(=O)N[C@H](Cc1c[nH]c2ccccc12)C(=O)N[C@H](CCCNC(=N)N)C(=O)N[C@H](CC(C)C)C(=O)N[C@H](Cc1ccccc1)C(=O)N[C@H](CCCNC(=N)N)C(=O)N[C@H](CCCCN)C(=O)N[C@H](CCCNC(=N)N)C(=O)O [Chain306D] (H-[dR][dL][dK][dR][dW][dR][dL][dF][dR][dK][dR]-OH)", "experimental.readout": "Minimum inhibitory concentration", "assay.value": 16}
{"molecule": "CC[C@@H](C)[C@@H](N)C(=O)N[C@H](Cc1c[nH]c2ccccc12)C(=O)N[C@H](CCCCN)C(=O)N[C@H](CCCNC(=N)N)C(=O)N[C@H](Cc1ccccc1)C(=O)N[C@H](CCCNC(=N)N)C(=O)N[C@H](CC(C)C)C(=O)N[C@H](Cc1ccccc1)C(=O)N[C@H](CCCCN)C(=O)N[C@H](CCCCN)C(=O)N[C@H](Cc1c[nH]c2ccccc12)C(=O)O [Chain304D] (H-[dI][dW][dK][dR][dF][dR][dL][dF][dK][dK][dW]-OH)", "experimental.readout": "Minimum inhibitory concentration", "assay.value": 32}

-- ask Recorded Minimum inhibitory concentration for CC(C)C[C@@H](NC(=O)[C@H](N)CCCNC(=N)N)C(=O)N[C@H](CCCCN)C(=O)N[C@H](Cc1c[nH]c2ccccc12)C(=O)N[C@H](Cc1ccccc1)C(=O)N[C@H](Cc1c[nH]c2ccccc12)C(=O)N[C@H](CC(C)C)C(=O)N[C@H](Cc1ccccc1)C(=O)N[C@H](CCCNC(=N)N)C(=O)N[C@H](CCCCN)C(=O)N[C@H](CCCNC(=N)N)C(=O)O [Chain307D] (H-[dR][dL][dK][dW][dF][dW][dL][dF][dR][dK][dR]-OH) , please?
-- reply 16

====

system: clinical strains of Serratia marcescens; assay: MIC, clinical strains of Serratia marcescens; type: cell-based; set-up: unit: µg/mL; conditions: Serratia marcescens clinical strain 5; microdilution, Muller Hinton broth-cation adjusted, 0.02% BSA, 0.2% acetic acid
Where a SMILES comes first, the peptide text is derived from it. [ ]: non-standard residue; d: D form.
experimental.readout: Minimum inhibitory concentration

-- ask Query for clinical strains of Serratia marcescens: what Minimum inhibitory concentration does the record show for CC(C)C[C@@H](NC(=O)[C@H](N)CCCNC(=N)N)C(=O)N[C@H](CCCCN)C(=O)N[C@H](Cc1c[nH]c2ccccc12)C(=O)N[C@H](Cc1ccccc1)C(=O)N[C@H](Cc1c[nH]c2ccccc12)C(=O)N[C@H](CC(C)C)C(=O)N[C@H](Cc1ccccc1)C(=O)N[C@H](CCCNC(=N)N)C(=O)N[C@H](CCCCN)C(=O)N[C@H](CCCNC(=N)N)C(=O)O [Chain307D] (H-[dR][dL][dK][dW][dF][dW][dL][dF][dR][dK][dR]-OH) ?
-- reply >128

-- ask Continue with CC(C)C[C@@H](NC(=O)[C@H](N)CCCCN)C(=O)N[C@H](CCCCN)C(=O)N[C@H](Cc1c[nH]c2ccccc12)C(=O)N[C@H](Cc1ccccc1)C(=O)N[C@H](Cc1c[nH]c2ccccc12)C(=O)N[C@H](CC(C)C)C(=O)N[C@H](Cc1ccccc1)C(=O)N[C@H](CCCCN)C(=O)N[C@H](CCCCN)C(=O)N[C@H](CCCNC(=N)N)C(=O)O [Chain311D] (H-[dK][dL][dK][dW][dF][dW][dL][dF][dK][dK][dR]-OH)
-- reply >128

-- ask // same read-out, input: CC(C)C[C@@H](NC(=O)[C@@H](CCCCN)NC(=O)[C@@H](CCCCN)NC(=O)[C@@H](Cc1ccccc1)NC(=O)[C@@H](CC(C)C)NC(=O)[C@@H](Cc1c[nH]c2ccccc12)NC(=O)[C@@H](CCCNC(=N)N)NC(=O)[C@@H](Cc1c[nH]c2ccccc12)NC(=O)[C@@H](CCCCN)NC(=O)[C@@H](CCCNC(=N)N)NC(=O)[C@H](N)CCCCN)C(=O)O [Chain310D] (H-[dK][dR][dK][dW][dR][dW][dL][dF][dK][dK][dL]-OH)
-- reply >128

-- ask And CC[C@@H](C)[C@@H](NC(=O)[C@@H](Cc1c[nH]c2ccccc12)NC(=O)[C@H](N)CCCCN)C(=O)N[C@@H](C(=O)N[C@H](Cc1c[nH]c2ccccc12)C(=O)N[C@H](CCCNC(=N)N)C(=O)N[C@H](Cc1c[nH]c2ccccc12)C(=O)N[C@H](CCCNC(=N)N)C(=O)N[C@H](Cc1ccccc1)C(=O)N[C@H](CCCCN)C(=O)N[C@H](CCCNC(=N)N)C(=O)O)C(C)C [Chain201D] (H-[dK][dW][dI][dV][dW][dR][dW][dR][dF][dK][dR]-OH) ?
-- reply 128

-- ask Please do the same for CC(C)C[C@@H](NC(=O)[C@H](N)CCCNC(=N)N)C(=O)N[C@H](CCCCN)C(=O)N[C@H](Cc1c[nH]c2ccccc12)C(=O)N[C@H](Cc1ccccc1)C(=O)N[C@H](CC(C)C)C(=O)N[C@H](CC(C)C)C(=O)N[C@H](Cc1ccccc1)C(=O)N[C@H](CCCNC(=N)N)C(=O)N[C@H](CCCCN)C(=O)N[C@H](CCCNC(=N)N)C(=O)O [Chain308D] (H-[dR][dL][dK][dW][dF][dL][dL][dF][dR][dK][dR]-OH) as well.
-- reply 128

-- ask What do you have for CC[C@@H](C)[C@@H](N)C(=O)N[C@H](Cc1c[nH]c2ccccc12)C(=O)N[C@H](CCCCN)C(=O)N[C@H](CCCNC(=N)N)C(=O)N[C@H](Cc1ccccc1)C(=O)N[C@H](CCCNC(=N)N)C(=O)N[C@H](CC(C)C)C(=O)N[C@H](Cc1ccccc1)C(=O)N[C@H](CCCCN)C(=O)N[C@H](CCCCN)C(=O)N[C@H](Cc1c[nH]c2ccccc12)C(=O)O [Chain304D] (H-[dI][dW][dK][dR][dF][dR][dL][dF][dK][dK][dW]-OH) ?
-- reply >128

-- ask Also CC(C)C[C@@H](NC(=O)[C@@H](Cc1c[nH]c2ccccc12)NC(=O)[C@@H](Cc1ccccc1)NC(=O)[C@@H](Cc1c[nH]c2ccccc12)NC(=O)[C@@H](CCCCN)NC(=O)[C@@H](CCCNC(=N)N)NC(=O)[C@H](N)Cc1c[nH]c2ccccc12)C(=O)N[C@H](Cc1ccccc1)C(=O)N[C@H](CCCCN)C(=O)N[C@H](CCCCN)C(=O)N[C@H](CCCNC(=N)N)C(=O)O [Chain309D] (H-[dW][dR][dK][dW][dF][dW][dL][dF][dK][dK][dR]-OH) , if possible.
-- reply >128

-- ask And the next one, CC(C)C[C@@H](NC(=O)[C@H](N)CCCNC(=N)N)C(=O)N[C@H](CCCCN)C(=O)N[C@H](CCCNC(=N)N)C(=O)N[C@H](Cc1c[nH]c2ccccc12)C(=O)N[C@H](CCCNC(=N)N)C(=O)N[C@H](CC(C)C)C(=O)N[C@H](Cc1ccccc1)C(=O)N[C@H](CCCNC(=N)N)C(=O)N[C@H](CCCCN)C(=O)N[C@H](CCCNC(=N)N)C(=O)O [Chain306D] (H-[dR][dL][dK][dR][dW][dR][dL][dF][dR][dK][dR]-OH) ?
-- reply >128

-- ask Also, CC[C@@H](C)[C@@H](NC(=O)[C@@H](CC(C)C)NC(=O)[C@@H](CCCNC(=N)N)NC(=O)[C@H](N)CCCNC(=N)N)C(=O)N[C@H](Cc1c[nH]c2ccccc12)C(=O)N[C@H](CCCNC(=N)N)C(=O)N[C@H](CCCNC(=N)N)C(=O)N[C@H](Cc1ccccc1)C(=O)N[C@H](CCCCN)C(=O)N[C@H](Cc1c[nH]c2ccccc12)C(=O)N[C@H](CC(C)C)C(=O)N[C@H](CCCNC(=N)N)C(=O)O [Chain204D] (H-[dR][dR][dL][dI][dW][dR][dR][dF][dK][dW][dL][dR]-OH) please.
-- reply >128
